FYI, the data here is from ChEMBL document CHEMBL3804798.

- Assay Notes: Cytotoxicity against mouse RAW264.7 cells assessed as cell viability at 5 uM after 48 hrs by MTT assay relative to control
- Format: cell-based
- Conditions Used: read-out: Activity
Measurement Type: viability at 48 h, 5 µM (%)
Only the number, expressed in %, is required.

Past entries and their recorded results:
>  <Molecule>
CCOC(=O)N1CCN(C(=O)Oc2c(OC)ccc3cc4[n+](cc23)CCc2cc3c(cc2-4)OCO3)CC1

>  <Units Text>
%

>  <viability at 48 h, 5 µM>
97.9

$$$$
>  <Molecule>
COc1ccc2cc3[n+](cc2c1OC(=O)N1CCN(c2ncccn2)CC1)CCc1cc2c(cc1-3)OCO2

>  <Units Text>
%

>  <viability at 48 h, 5 µM>
102

$$$$
>  <Molecule>
COc1ccc2cc3[n+](cc2c1OC(=O)N(C)C1CCCCC1)CCc1cc2c(cc1-3)OCO2

>  <Units Text>
%

>  <viability at 48 h, 5 µM>
99.3

$$$$

Entry COc1ccc2cc3[n+](cc2c1OC(=O)N1CCC(Cc2ccccc2)CC1)CCc1cc2c(cc1-3)OCO2 ; viability at 48 h, 5 µM = 97.6

Entry COc1ccc2cc3[n+](cc2c1OC(=O)N1CCOCC1)CCc1cc2c(cc1-3)OCO2 ; viability at 48 h, 5 µM = 105

---

compounds and their reported viability at 48 h, 10 µM
- Assay Notes: Cytotoxicity against mouse RAW264.7 cells assessed as cell viability at 10 uM after 48 hrs by MTT assay relative to control
- Assay type: cell-based
- Conditions Used: read-out: Activity
Only the number, expressed in %, is required.

Past entries and their recorded results:
>  <Mol>
COc1ccc2cc3[n+](cc2c1OC(=O)N1CCN(c2ncccn2)CC1)CCc1cc2c(cc1-3)OCO2

>  <viability at 48 h, 10 µM, %>
97.6

$$$$
>  <Mol>
COc1ccc2cc3[n+](cc2c1OC(=O)N1CCOCC1)CCc1cc2c(cc1-3)OCO2

>  <viability at 48 h, 10 µM, %>
96

$$$$
>  <Mol>
CCCN(CCC)C(=O)Oc1c(OC)ccc2cc3[n+](cc12)CCc1cc2c(cc1-3)OCO2

>  <viability at 48 h, 10 µM, %>
93.9

$$$$
>  <Mol>
C=CCN(CC=C)C(=O)Oc1c(OC)ccc2cc3[n+](cc12)CCc1cc2c(cc1-3)OCO2

>  <viability at 48 h, 10 µM, %>
92.2

$$$$

Now let's try a different one.
Entry COc1ccc2cc3[n+](cc2c1OC(=O)N1CCC(Cc2ccccc2)CC1)CCc1cc2c(cc1-3)OCO2 ; viability at 48 h, 10 µM = 87.9

---

- Assay Notes: Cytotoxicity against mouse RAW264.7 cells assessed as cell viability at 10 uM after 48 hrs by MTT assay relative to control
- Type: cell-based
- Conditions Used: read-out: Activity
Measurement Type: viability at 48 h, 10 µM (%)
Only the number, expressed in %, is required.

>  <Compound>
COc1ccc2cc3[n+](cc2c1OC)CCc1cc2c(cc1-3)OCO2 [BERBERINE CHLORIDE]

>  <Units Text>
%

>  <viability at 48 h, 10 µM>
97.2

$$$$
>  <Compound>
CCOC(=O)C1CCN(CCCOc2c(OC)ccc3cc4[n+](cc23)CCc2cc3c(cc2-4)OCO3)CC1

>  <Units Text>
%

>  <viability at 48 h, 10 µM>
99.5

$$$$
>  <Compound>
COc1ccc2cc3[n+](cc2c1OC(=O)N(C)C1CCCCC1)CCc1cc2c(cc1-3)OCO2

>  <Units Text>
%

>  <viability at 48 h, 10 µM>
83.2

$$$$
>  <Compound>
COc1ccc2cc3[n+](cc2c1OC(=O)N1CCC(N2CCN(C)CC2)CC1)CCc1cc2c(cc1-3)OCO2

>  <Units Text>
%

>  <viability at 48 h, 10 µM>
104

$$$$
>  <Compound>
COc1ccc2cc3[n+](cc2c1OC(=O)N1CCSCC1)CCc1cc2c(cc1-3)OCO2

>  <Units Text>
%

>  <viability at 48 h, 10 µM>
109

$$$$
>  <Compound>
CCOC(=O)N1CCN(CCCOc2c(OC)ccc3cc4[n+](cc23)CCc2cc3c(cc2-4)OCO3)CC1

>  <Units Text>
%

>  <viability at 48 h, 10 µM>
99.1

$$$$
>  <Compound>
CCOC(=O)N1CCN(C(=O)Oc2c(OC)ccc3cc4[n+](cc23)CCc2cc3c(cc2-4)OCO3)CC1

>  <Units Text>
%

>  <viability at 48 h, 10 µM>
99.6

$$$$
>  <Compound>
COc1ccc2cc3[n+](cc2c1OCCCN1CCN(c2ccncc2)CC1)CCc1cc2c(cc1-3)OCO2

>  <Units Text>
%

>  <viability at 48 h, 10 µM>
100

$$$$

Now let's try a different one.
Entry COc1ccc2cc3[n+](cc2c1OC(=O)N1CCN(c2ccccn2)CC1)CCc1cc2c(cc1-3)OCO2 ; viability at 48 h, 10 µM = 109

---

molecules and their reported viability at 48 h, 5 µM
- Assay Notes: Cytotoxicity against mouse RAW264.7 cells assessed as cell viability at 5 uM after 48 hrs by MTT assay relative to control
- Assay type: cell-based
- Conditions Used: read-out: Activity
Only the number, expressed in %, is required.

Past entries and their recorded results:
>  <Molecule>
COc1ccc2cc3[n+](cc2c1OCCCN1CCN(c2ccncc2)CC1)CCc1cc2c(cc1-3)OCO2

>  <viability at 48 h, 5 µM (%)>
103

$$$$
>  <Molecule>
COc1ccc2c(c1)c(CC(=O)O)c(C)n2C(=O)c1ccc(Cl)cc1

>  <viability at 48 h, 5 µM (%)>
99.8

$$$$
>  <Molecule>
CCOC(=O)N1CCN(CCCOc2c(OC)ccc3cc4[n+](cc23)CCc2cc3c(cc2-4)OCO3)CC1

>  <viability at 48 h, 5 µM (%)>
103

$$$$
>  <Molecule>
CCOC(=O)C1CCN(CCCOc2c(OC)ccc3cc4[n+](cc23)CCc2cc3c(cc2-4)OCO3)CC1

>  <viability at 48 h, 5 µM (%)>
98.5

$$$$
>  <Molecule>
COc1ccc2cc3[n+](cc2c1OC(=O)N1CCC(N2CCCCC2)CC1)CCc1cc2c(cc1-3)OCO2

>  <viability at 48 h, 5 µM (%)>
98.1

$$$$
>  <Molecule>
COc1ccc2cc3[n+](cc2c1OC)CCc1cc2c(cc1-3)OCO2 [BERBERINE CHLORIDE]

>  <viability at 48 h, 5 µM (%)>
99.4

$$$$
>  <Molecule>
COc1ccc2cc3[n+](cc2c1OC(=O)N1CCN(c2ccccn2)CC1)CCc1cc2c(cc1-3)OCO2

>  <viability at 48 h, 5 µM (%)>
103

$$$$
>  <Molecule>
COc1ccc2cc3[n+](cc2c1OC(=O)N1CCC(N2CCN(C)CC2)CC1)CCc1cc2c(cc1-3)OCO2

>  <viability at 48 h, 5 µM (%)>
101

$$$$
>  <Molecule>
COc1ccc2cc3[n+](cc2c1OC(=O)N1CCN(C2CCN(C)CC2)CC1)CCc1cc2c(cc1-3)OCO2

>  <viability at 48 h, 5 µM (%)>
107

$$$$
>  <Molecule>
CCCN(CCC)C(=O)Oc1c(OC)ccc2cc3[n+](cc12)CCc1cc2c(cc1-3)OCO2

>  <viability at 48 h, 5 µM (%)>
101

$$$$

Entry COc1ccc2cc3[n+](cc2c1OC(=O)N1CCSCC1)CCc1cc2c(cc1-3)OCO2 ; viability at 48 h, 5 µM = 96

Entry C=CCN(CC=C)C(=O)Oc1c(OC)ccc2cc3[n+](cc12)CCc1cc2c(cc1-3)OCO2 ; viability at 48 h, 5 µM = 100

---

- Assay Notes: Cytotoxicity against mouse RAW264.7 cells assessed as cell viability at 10 uM after 48 hrs by MTT assay relative to control
- Format: cell-based
- Conditions Used: read-out: Activity
Measurement Type: viability at 48 h, 10 µM (%)
Only the number, expressed in %, is required.

Entry COc1ccc2cc3[n+](cc2c1OC(=O)N1CCN(C2CCN(C)CC2)CC1)CCc1cc2c(cc1-3)OCO2 ; viability at 48 h, 10 µM = 102

Entry COc1ccc2c(c1)c(CC(=O)O)c(C)n2C(=O)c1ccc(Cl)cc1 ; viability at 48 h, 10 µM = 99.6

Entry COc1ccc2cc3[n+](cc2c1OC(=O)N1CCC(N2CCCCC2)CC1)CCc1cc2c(cc1-3)OCO2 ; viability at 48 h, 10 µM = 100
